- Protocol summary: MIC of test compounds against various organisms
- Type: cell-based
- Setup conditions: versus all these organisms (panel of 10 strains); read-out: MIC
Counter-ions that a name gives are not always drawn.
Test readout: MIC

Some entries whose results are on file:
>>> result("COc1ccc2nccc(NC(=O)[C@]3(O)CC[C@@H](NCc4ccc5c(c4)NC(=O)CS5)CC3)c2n1 [Example 300, Dihydrochloride]")
"≤ 4 µg/mL"
>>> result("COc1cc(F)c2nccc(NC(=O)[C@H]3CC[C@H](NCc4ccc5c(c4)OCCO5)CC3)c2c1 [Example 10, Fumarate Salt]")
"≤ 16 µg/mL"
>>> result("COc1ccc2nccc(NC(=O)[C@H]3CC[C@H](NCc4cc(N)c5c(c4)NC(=O)CO5)CC3)c2n1")
"≤ 64 µg/mL"
>>> result("COc1ccc2nccc(NC(=O)[C@]3(O)CC[C@@H](NCc4cc5c(cn4)SCC(=O)N5)CC3)c2n1 [Example 302, Dihydrochloride]")
"≤ 4 µg/mL"

Now examine the next entry.
Input COc1ccc2nccc(NC(=O)C3=CCC(NCc4cnc5c(c4)NC(=O)CS5)CC3)c2n1 (racemic) [Example 153, oxalate] , output reported MIC.
≤ 4 µg/mL
